target: GH (GH stock solution) (UniProt P01241); experiment: affinity chromatography, VHH-conjugated medium loaded with GH stock solution; medium in 0.1M NaOH 24h
Sequence (P01241 27-217 limits assumed): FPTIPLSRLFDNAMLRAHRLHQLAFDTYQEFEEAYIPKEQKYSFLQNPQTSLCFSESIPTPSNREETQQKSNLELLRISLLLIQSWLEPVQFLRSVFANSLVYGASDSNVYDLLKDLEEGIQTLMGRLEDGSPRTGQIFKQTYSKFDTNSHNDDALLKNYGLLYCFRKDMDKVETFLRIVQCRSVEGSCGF
Endpoint name: dynamic binding capacity at 10% breakthrough
Answer field: number only, no words.

Data request: Name the reported dynamic binding capacity at 10% breakthrough value associated with the binder M78 (Second round) (VHH, Entry already carries A57D; G134R; D102Y); tail DDDDK-SGGRGS-HHHHHH) VHH: QVQLVESGGGLAQAGGSLRLSCAVSGMPEFARAMGWFRQAPGKERELLAAIEGIGDTTYYADSVKGRFTISRDDAANTVLLQMNSLKPDDTAVYYCAAAFSVTIPTRARHWVYWGPGTLVTVSS
Data returned: 16.3

Data request: Would you kindly repeat that for M68 (Second round) (VHH, Entry already carries A15P; R19T); tail DDDDK-SGGGGS-HHHHHH) VHH: QVQLVESGGGLAQPGGSLTLSCAVSGMPEFARAMGWFRQAPGKERELLAAIEGIGATTYYADSVKGRFTISRDDAANTVLLQMNSLKPDDTAVYYCAAAFSVTIPTRARHWVDWGPGTLVTVSS ?
Data returned: 16.2

Data request: What about this binder? WT (with tag), unmodified GH single-domain antibody molecule (VHH) VHH: QVQLVESGGGLAQAGGSLRLSCAVSGMPEFARAMGWFRQAPGKERELLAAIEGIGATTYYADSVKGRFTISRDDAANTVLLQMNSLKPDDTAVYYCAAAFSVTIPTRARHWVDWGPGTLVTVSS
Data returned: 16.2

Data request: Would you kindly repeat that for M45 (First round) (VHH) VHH: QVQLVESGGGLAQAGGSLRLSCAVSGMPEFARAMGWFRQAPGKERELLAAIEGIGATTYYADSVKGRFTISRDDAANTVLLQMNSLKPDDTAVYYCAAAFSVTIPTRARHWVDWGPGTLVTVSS ?
Data returned: 17.4

Data request: Record: M74 (Second round) (VHH, Entry already carries A57D; G134R; R100eE); tail DDDDK-SGGRGS-HHHHHH) VHH: QVQLVESGGGLAQAGGSLRLSCAVSGMPEFARAMGWFRQAPGKERELLAAIEGIGDTTYYADSVKGRFTISRDDAANTVLLQMNSLKPDDTAVYYCAAAFSVTIPTRAEHWVDWGPGTLVTVSS
Data returned: 15.8

Data request: Try the binder M67 (Second round) (VHH, Entry already carries A15P; P105Q); tail DDDDK-SGGGGS-HHHHHH) VHH: QVQLVESGGGLAQPGGSLRLSCAVSGMPEFARAMGWFRQAPGKERELLAAIEGIGATTYYADSVKGRFTISRDDAANTVLLQMNSLKPDDTAVYYCAAAFSVTIPTRARHWVDWGQGTLVTVSS
Data returned: 16.2

Data request: Do the same for M20 (First round) (VHH) VHH: QVQLVESGGGLAQAGGSLRLSCAVSGMPEFARAMGWFRQAPGKERELVAAIEGIGATTYYADSVKGRFTISRDDAANTVLLQMNSLKPDDTAVYYCAAAFSVTIPTRARHWVDWGPGTLVTVSS please
Data returned: 18

Reference source for all entries: patent EP4803541A1
